Just for reference, ChEMBL document CHEMBL4483862 is where these values come from.

System: Plasmodium berghei
assay_method_text: Luciferase/luciferin-expressing antifolate-resistant parasites were used to infect a culture of HepG2 cells that were pre-incubated with compounds. Infected hepatocytes emit light due to the luciferase reaction. Assay results are presented as the percent inhibition of light emission compared to control. […]
Assay type: functional
condition_info: sporozoite, FFLUC_HILL_SLOPE 3.33, FFLUC_R_SQUARED 0.811, read-out: LUCIFERASE INFECTION ASSAY - IC50
quantity: IC50

Data request: Quick one: give measured IC50 for "O=C(NNC1=NN(c2ccccc2)c2ccc(Br)cc2N1)c1ccc(F)cc1"
Data returned: > 10 µM

====

System: Plasmodium berghei
assay_method_text: Luciferase/luciferin-expressing antifolate-resistant parasites were used to infect a culture of HepG2 cells that were pre-incubated with compounds. Infected hepatocytes emit light due to the luciferase reaction. Assay results are presented as the percent inhibition of light emission compared to control. […]
Assay type: functional
condition_info: sporozoite, read-out: LUCIFERASE INFECTION ASSAY - IC90
quantity: IC90

The examples below pair each entry with its known result.
| compound | quantity | observed_value |
| --- | --- | --- |
| CCCCCNS(=O)(=O)c1cccc2c(N)cccc12 | IC90 | > 11.3 µM |
| C=CCn1c(SCC(=O)Nc2sc(C)c(C)c2C(=O)OCC)nc2scc(-c3ccc(OC)cc3)c2c1=O | IC90 | > 10 µM |
| CCOc1ccccc1C(=O)N[C@H](C(=O)Nc1sc2c(c1C(N)=O)CCC2)C(C)C | IC90 | 9.93 µM |

Fill in IC90 for each of the 5 compounds listed.
1. CSc1sc(C(=O)N/N=C/c2ccc(Cl)cc2)c2c1C1(CCC2)SCCS1
2. CSCCC(C(=O)Oc1c(Cl)cc(Cl)c2ccc(C)nc12)N1C(=O)c2ccccc2C1=O (stereo not given)
3. CN(C)n1cccc1/C=C(\C#N)S(C)(=O)=O
4. CCCc1c(C)[nH]c2[nH]n(-c3nc(C)cc(C)n3)c(=O)c2c1=O
5. CCCCc1[nH]nc2ccnc(-c3cncc(OC)c3)c12

Data returned:
["> 7.25 µM", "> 10 µM", "> 13.8 µM", "> 10.5 µM", "> 10 µM"]

Record IC90 for all entries; do not skip any.
1. CN(C)c1ccc(-c2cnc3cnc(-c4ccc(O)cc4)cn23)cc1
2. Cc1cc(NCc2ccccn2)n2nc(C)c(-c3ccccc3Cl)c2n1

Data returned:
["1.76 µM", "5.5 µM"]
